# Tested on: SNB-19 CNS
# procedure.details: NCI-60 one-dose screen, 48 h (100 = growth as untreated, 0 = no growth, -100 = all killed)
# assay.setup: 10 µM unless noted
The panel holds about 83,000 compounds, 20% with a hit somewhere; the sample as a whole holds those more often.
# if measured growth < 40%: yes  # else: no

{"columns": ["item.smiles", "qualitative.label"],
 "data": [
  ["Cc1cc(NC(=O)NCCCOc2ccc(N3C(N)=NC(N)=NC3(C)C)cc2Cl)ccc1S(=O)(=O)F", "yes"]
]}

Input line: Given the entry Oc1ccccc1C=NCCN=Cc1ccccc1O , would its reported growth be below 40%?
Output line: no

Input line: Given the entry CCCC[C@H]1C(=O)O[C@H](C)[C@H](NC(=O)c2cccc(NC=O)c2O)C(=O)O[C@@H](C)[C@@H]1OC(=O)CC(C)C , would its reported growth be below 40%?
Output line: no

Input line: Given the entry Nc1cccnc1 , would its reported growth be below 40%?
Output line: no

Input line: Given the entry OCCN=Cc1c[nH]c2ccccc12 , would its reported growth be below 40%?
Output line: no

* * *

# System: SF-539 CNS
# procedure.details: NCI-60 one-dose screen, 48 h
# assay.setup: 10 µM unless noted
Compounds without any hit were thinned out: in the full panel of roughly 83,000, 20% have a hit. Calls of active or inactive are those of the source. How the source made its calls: active means growth percent below 10; inactive means the rest.
// allowed return values: class 1 = active, class 0 = inactive

Example cases with answers are listed next.
{"columns": ["compound", "target.entity", "qualitative.label"],
 "data": [
  ["O=C(O)c1ccccc1N(CCO)CCCl", "SF-539 CNS", "class 0"],
  ["CNC(=O)O/N=C(\\SC)C(=O)N(C)C", "SF-539 CNS", "class 0"],
  ["O=C1CN2CCC1CC2", "SF-539 CNS", "class 0"]
]}

Input line: So what was the verdict on O=C(O)C(F)F in this test?
Output line: class 0

Input line: So what was the verdict on NC(N)=NC(N)=Nc1ccc(Cl)cc1 in this test?
Output line: class 0

Input line: So what was the verdict on O=[N+]([O-])c1ccc(OCc2ccc(S(=O)(=O)F)c(Cl)c2)c(Cl)c1 in this test?
Output line: class 0

Input line: So what was the verdict on CO/N=C1\CC[C@]2(C)[C@H]3CC[C@]4(C)C(=O)CC[C@H]4[C@@H]3C[C@@H]3SC(N)=N[C@@]32C1 in this test?
Output line: class 0

Input line: So what was the verdict on CC[C@H](C)[C@H](NC(=O)C12CC(NC)(C1)C2)C(=O)N(C)[C@H](C[C@@H](OC(C)=O)c1nc(C(=O)N[C@@H](Cc2ccccc2)C[C@H](C)C(=O)OC)cs1)C(C)C in this test?
Output line: class 1

* * *

# Tested on: TK-10 renal
# procedure.details: NCI-60 one-dose screen, 48 h (100 = growth as untreated, 0 = no growth, -100 = all killed)
# assay.setup: 10 µM unless noted
The panel holds about 83,000 compounds, 20% with a hit somewhere; the sample as a whole holds those more often.
metric: growth (%)
Your answer is read as %, so omit the unit and give the number.

Examples with their reported growth follow.
{"columns": ["molecule", "unit.annotation", "growth"],
 "data": [
  ["O=C1CCCCC1CN1CCCCC1 (centres undefined)", "%", 90.4],
  ["O=NN(c1ccccc1)c1ccccc1", "%", 103],
  ["COc1c(O)cc2c(c1OC)-c1ccc(SC)c(=O)cc1C(NC(C)=O)CC2 (centres undefined)", "%", 48.7],
  ["COC(=O)C1=CO[C@@H](C)[C@@H]2CN3CCc4c([nH]c5cc(OC)ccc45)[C@@H]3C[C@H]12", "%", 101],
  ["COC12CC3(C)C(C4=CC(=O)OC4)CCC3(O)C3CCC4=CC(=O)CCC4(CO1)C32 (centres undefined)", "%", 101],
  ["O=[N+]([O-])c1ccc(CI)cc1", "%", 112]
]}

Input line: Item under review: Cc1cc[c-]cc1.Fc1c[c-]c(-c2ccccn2)c(F)c1.N#CCC[PH+](CCC#N)c1ccccc1.[Pt+2] . Reported growth?
Output line: 106

Input line: Item under review: C[C@]12CCc3nc(-c4ccc(O)c(O)c4)sc3C1=CC[C@@H]1[C@@H]2CC[C@]2(C)C(=O)CC[C@@H]12 . Reported growth?
Output line: 53.6

Input line: Item under review: CN(C)[C@@H]1C(=O)C(C(N)=O)=C(O)[C@@]2(O)C(=O)C3=C(O)c4c(O)ccc(Cl)c4[C@@](C)(O)[C@H]3C[C@@H]12 . Reported growth?
Output line: 86.9

* * *

# Tested on: OVCAR-8 ovarian
# procedure.details: NCI-60 one-dose screen, 48 h (100 = growth as untreated, 0 = no growth, -100 = all killed)
# assay.setup: 10 µM unless noted
Compounds without any hit were thinned out: in the full panel of roughly 83,000, 20% have a hit.
metric: growth (%)
Your answer is read as %, so omit the unit and give the number.

Examples with their reported growth follow.
{"columns": ["molecule", "metric", "measurement"],
 "data": [
  ["COc1cc(-c2ccc(N)c(OC)c2)ccc1N", "growth", 114],
  ["CCOC(=O)C1C(C=C(C)C)C1(C)C (stereo not given)", "growth", 99.6],
  ["CC[C@H](C)[C@H](NC(=O)c1cnccn1)C(=O)N(C)[C@H](C[C@@H](OC(C)=O)c1nc(C(=O)N[C@@H](Cc2ccccc2)C[C@H](C)C(=O)OC)cs1)C(C)C", "growth", 15.2],
  ["COc1ccc2c(c1)c(-c1nc(-c3c[nH]c4ncccc34)cs1)cn2CCCCN1CCOCC1", "growth", 55.6]
]}

Would you kindly look at the next entry?
Input line: GET /values?readout=growth&system=OVCAR-8 ovarian&item= COCC1OC2OC3C(COC)OC(OC4C(COC)OC(OC5C(COC)OC(OC6C(COC)OC(OC7C(COC)OC(OC8C(COC)OC(OC1C(O)C2O)C(O)C8O)C(O)C7O)C(O)C6O)C(O)C5O)C(O)C4O)C(O)C3O (stereo not given) (tested in a mixture with another compound)
Output line: 114

* * *

# Tested on: NCI-H226 lung
# procedure.details: NCI-60 one-dose screen, 48 h (100 = growth as untreated, 0 = no growth, -100 = all killed)
# assay.setup: 10 µM unless noted
The panel holds about 83,000 compounds, 20% with a hit somewhere; the sample as a whole holds those more often.
Entries and their measured growth follow.
Your answer is read as %, so omit the unit and give the number.

Examples with their reported growth follow.
{"columns": ["compound", "growth [%]"],
 "data": [
  ["CSc1cc(/C=C(\\C)[C@@H]2C[C@@H]3O[C@]3(C)CCC[C@H](C)[C@H](O)[C@@H](C)C(=O)C(C)(C)[C@@H](O)CC(=O)O2)n(CCNC(=O)OC(C)(C)C)n1", 82.7],
  ["CC1=C(C)C(=O)O[C@@H]([C@](C)(O)[C@]2(O)CC[C@@]3(O)[C@@H]4C[C@H]5O[C@]56CC=CC(=O)[C@]6(C)[C@H]4CC[C@]23C)C1", -45.2],
  ["Cc1nc2ccccc2c(=O)n1-c1ccccc1F", 96.6],
  ["Nc1cccnc1", 107]
]}

Input line: Item under review: CC[C@H](CC[C@@H](C)[C@H]1CC[C@H]2[C@@H]3CC[C@H]4C[C@]5(CC[C@]4(C)[C@H]3CC[C@]12C)OO[C@](C)(C(F)(F)F)O5)C(C)C . Reported growth?
Output line: 89.7

Input line: Item under review: C[C@]12CC[C@H]3[C@@H](C[C@@H]4SC(Nc5cccc(F)c5)=N[C@@]45CC(=O)CC[C@]35C)[C@@H]1CCC2=O . Reported growth?
Output line: 71.9

* * *

# System: OVCAR-4 ovarian
# procedure.details: NCI-60 one-dose screen, 48 h (100 = growth as untreated, 0 = no growth, -100 = all killed)
# assay.setup: 10 µM unless noted
About 83,000 compounds went through this panel and 20% of them were active in at least one assay; those are over-represented in the sample as a whole.
metric: growth (%)
Your answer is read as %, so omit the unit and give the number.

{"columns": ["molecule", "metric", "measurement"],
 "data": [
  ["Nc1ccc2c(c1)Cc1cc(N)ccc1-2", "growth", 95.5],
  ["Cc1ccccc1-n1c(/C=C\\c2ccccn2)nc2ccccc2c1=O", "growth", 67.6],
  ["Cc1cc(C(C)(C)C)ccc1O", "growth", 109],
  ["COC12CC3(C)C(C4=CC(=O)OC4)CCC3(O)C3CCC4=CC(=O)CCC4(CO1)C32 (centres undefined)", "growth", 105],
  ["CCN1C(=O)CC(=O)N(CC)C1=S", "growth", 89.9]
]}

Would you kindly look at the next entry?
Input line: GET /values?readout=growth&system=OVCAR-4 ovarian&item= [N-]=[N+]=CC(=O)CCC(=O)C=[N+]=[N-]
Output line: 108

These measurements were taken from PubChem BioAssay (NCI).
